METHOD_SUMMARY: acute toxicity test (LD50) in mice
TEST_SETTINGS: mouse, in vivo, po; Maus
MEASUREMENT_KIND: LD50

Challenge: Give the value of LD50 reported for the following: `O=c1c2ccccc2[se]n1-c1ccccc1`
Response given: > 6810 mg/kg

---

METHOD_SUMMARY: acute toxicity test (LD50) in rats
TEST_SETTINGS: rat, in vivo, ip; Ratte
MEASUREMENT_KIND: LD50 (mg/kg)
State just the number; it will be interpreted in mg/kg.

Challenge: Indicate its recorded LD50; the compound in question is `O=c1c2ccccc2[se]n1-c1ccccc1`
Response given: 580
